study_target: SHP2 (Homo sapiens)
Sequence (Q06124 whole entry): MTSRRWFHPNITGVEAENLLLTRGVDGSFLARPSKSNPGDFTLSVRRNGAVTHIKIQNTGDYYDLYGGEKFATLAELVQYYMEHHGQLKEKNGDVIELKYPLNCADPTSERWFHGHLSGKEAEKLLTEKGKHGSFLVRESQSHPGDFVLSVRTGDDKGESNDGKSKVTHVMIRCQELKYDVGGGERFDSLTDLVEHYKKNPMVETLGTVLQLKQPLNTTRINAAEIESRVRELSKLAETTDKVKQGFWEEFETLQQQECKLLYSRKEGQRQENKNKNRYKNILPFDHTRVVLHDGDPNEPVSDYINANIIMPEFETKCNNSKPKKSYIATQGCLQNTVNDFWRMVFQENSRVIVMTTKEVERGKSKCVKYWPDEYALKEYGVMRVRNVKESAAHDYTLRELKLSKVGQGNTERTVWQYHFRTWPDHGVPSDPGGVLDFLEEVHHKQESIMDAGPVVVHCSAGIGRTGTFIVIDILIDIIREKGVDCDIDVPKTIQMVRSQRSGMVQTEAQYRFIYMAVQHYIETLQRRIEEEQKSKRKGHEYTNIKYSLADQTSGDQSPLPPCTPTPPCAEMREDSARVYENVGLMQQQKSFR
protocol_notes: SHP2 allosteric inhibitor enzyme activity assay (DiFMUP fluorescence)
Assay type: biochemical
setup_conditions: class symbols
pIC50: −log10 of the molar value.
measurement_label: pIC50

Completed entries (count: 5):
[
  {
    "compound": "Cc1nc(N2CCC3(CC2)CO[C@@H](C)[C@H]3N)c(CO)nc1C1(c2ccccc2)CC1 [Example 261]",
    "pIC50": "< 7.22"
  },
  {
    "compound": "C[C@@H]1OCC2(CCN(c3nc4[nH]nc(C5(c6ccc7ocnc7c6)CC5)c4c(=O)[nH]3)CC2)[C@@H]1N [Example 287]",
    "pIC50": "7.22 to 7.70"
  },
  {
    "compound": "N[C@@H]1c2ccccc2CC12CCN(c1nc3[nH]nc(C4(c5cccnc5)CC4)c3c(=O)[nH]1)CC2 [Example 247]",
    "pIC50": "≥ 7.70"
  },
  {
    "compound": "N[C@@H]1c2ccccc2CC12CCN(c1nc3[nH]nc(C4=CS(=O)(=O)Cc5ccccc54)c3c(=O)[nH]1)CC2 [Example 182]",
    "pIC50": "≥ 7.70"
  },
  {
    "compound": "C[C@@H]1OCC2(CCN(c3nc4[nH]nc(C5(c6ccc(F)c(F)c6)CC5)c4c(=O)[nH]3)CC2)[C@@H]1N [Example 295]",
    "pIC50": "7.22 to 7.70"
  }
]

Batch: pIC50 for all items listed.
1. N[C@@H]1c2ccccc2CC12CCN(c1nc3[nH]nc(C4(c5cccc(OC(F)F)c5)CC4)c3c(=O)[nH]1)CC2 [Example 52]
2. N[C@@H]1c2ccccc2CC12CCN(c1nc3[nH]nc(C4(c5ccccc5Cl)CC4)c3c(=O)[nH]1)CC2 [Example 12]

≥ 7.70
≥ 7.70

====

Exercise: for every item that follows, state its recorded CLint Rat.
protocol_notes: In vitro metabolic stability in rat liver microsome
Format: in vitro ADME
setup_conditions: rat liver microsomes
Give bare numbers, in μL/min/mg proteins.

Completed entries (count: 5):
[
  {
    "compound": "N[C@@H]1c2ccccc2CC12CCN(c1nc3[nH]nc(C4(c5ccc(OC(F)(F)F)cc5)CC4)c3c(=O)[nH]1)CC2",
    "CLint Rat, μL/min/mg proteins": 3.4
  },
  {
    "compound": "N[C@@H]1c2ccccc2CC12CCN(c1nc3[nH]nc(C4(c5ccc(Cl)c(Cl)c5)CC4)c3c(=O)[nH]1)CC2",
    "CLint Rat, μL/min/mg proteins": 3.8
  },
  {
    "compound": "CC(C)(c1ccccc1)c1n[nH]c2nc(N3CCC4(CC3)Cc3ccccc3[C@H]4N)[nH]c(=O)c12",
    "CLint Rat, μL/min/mg proteins": 32.5
  },
  {
    "compound": "Cn1c(N2CCC3(CC2)Cc2ccccc2[C@H]3N)nc2[nH]nc(Sc3cccc(Cl)c3Cl)c2c1=O [Comparative compound 1, reference compound]",
    "CLint Rat, μL/min/mg proteins": 89.9
  },
  {
    "compound": "N[C@@H]1c2ccccc2CC12CCN(c1nc3[nH]nc(C4(c5cccc(C(F)(F)F)c5)CC4)c3c(=O)[nH]1)CC2",
    "CLint Rat, μL/min/mg proteins": 11.6
  }
]

Batch: CLint Rat for all items listed.
1. N[C@@H]1c2ccccc2CC12CCN(c1nc3[nH]nc(C4(c5ccc(O)cc5)CC4)c3c(=O)[nH]1)CC2
2. N[C@@H]1c2ccccc2CC12CCN(c1nc3[nH]nc(C4(c5ccc6c(c5)OCO6)CC4)c3c(=O)[nH]1)CC2

[6.6, 19.1]

Cited source for all entries: patent US20230192705A1
